Values compiled from paper PMC5116745.

molecular target: T1, recombinant human TLR4 protein (human, UniProt O00206 24-631); assay: SPR; Biacore T200; TLR4 immobilised on CM5 chip (6000 RU); HpGroES proteins flowed at 7.8125-1000 nM, 30 μl/min, 25 °C; PBS with 0.05% P20; Kd from saturation curves (GraphPad Prism); conditions: both partners purified
T1 construct: Toll-like receptor 4, human, recombinant protein from R&D Systems; R&D Systems' recombinant human TLR4 is, as far as recalled, the extracellular domain with a His tag (some products are a complex with MD-2); also called Toll-like receptor 4; source: bought: R&D Systems
T1 sequence (O00206 24-631): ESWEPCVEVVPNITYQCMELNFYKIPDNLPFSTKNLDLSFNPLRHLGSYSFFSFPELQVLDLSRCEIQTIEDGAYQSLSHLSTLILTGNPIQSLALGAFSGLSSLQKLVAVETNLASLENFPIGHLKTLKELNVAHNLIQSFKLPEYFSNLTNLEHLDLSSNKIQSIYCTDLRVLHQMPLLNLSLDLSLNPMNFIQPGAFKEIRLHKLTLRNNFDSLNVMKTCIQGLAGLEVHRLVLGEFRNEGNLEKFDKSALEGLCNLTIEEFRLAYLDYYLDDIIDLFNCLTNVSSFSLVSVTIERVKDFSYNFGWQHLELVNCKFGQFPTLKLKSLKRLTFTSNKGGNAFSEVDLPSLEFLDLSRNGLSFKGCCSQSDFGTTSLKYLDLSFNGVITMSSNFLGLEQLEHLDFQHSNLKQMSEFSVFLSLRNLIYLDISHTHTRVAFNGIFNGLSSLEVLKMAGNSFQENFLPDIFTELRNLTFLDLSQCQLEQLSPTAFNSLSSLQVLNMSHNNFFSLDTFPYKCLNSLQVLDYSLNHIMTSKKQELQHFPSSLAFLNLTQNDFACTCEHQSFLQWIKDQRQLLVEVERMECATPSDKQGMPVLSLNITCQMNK
pKd: −log10 of the molar value.
Reported pKd by item:
experimental_endpoint: pKd

- binder: "HpGroES H115A mutant (natural protein, Helicobacter pylori, UniProt P0A0R3 1-118, looked up, GroES (HspA) of Helicobacter pylori with a point mutation in domain B; Same construct as m1 with the mutation; nickel-loaded during purification; source: E. coli M15 (pQE30), purified (Ni2+-chelating Sepharose, Superdex 200 size exclusion)) MKFQPLGERVLVERLEEENKTSSGIIIPDNAKEKPLMGVVKAVSHKISEGCKCVKEGDVIAFGKYKGAEIVLDGTEYMVLELEDILGIVGSGSCCHTGNHDHKHAKEHEACCHDAKKH"
  censor_symbol: "="
  observed_result: 6.82
- binder: "HpGroES H108A mutant (natural protein, Helicobacter pylori, UniProt P0A0R3 1-118, looked up, GroES (HspA) of Helicobacter pylori with a point mutation in domain B; Same construct as m1 with the mutation; nickel-loaded during purification; source: E. coli M15 (pQE30), purified (Ni2+-chelating Sepharose, Superdex 200 size exclusion)) MKFQPLGERVLVERLEEENKTSSGIIIPDNAKEKPLMGVVKAVSHKISEGCKCVKEGDVIAFGKYKGAEIVLDGTEYMVLELEDILGIVGSGSCCHTGNHDHKHAKEAEACCHDHKKH"
  censor_symbol: "<"
  observed_result: 6.00
- binder: "HpGroES H96A mutant (natural protein, Helicobacter pylori, UniProt P0A0R3 1-118, looked up, GroES (HspA) of Helicobacter pylori with a point mutation in domain B; Same construct as m1 with the mutation; nickel-loaded during purification; source: E. coli M15 (pQE30), purified (Ni2+-chelating Sepharose, Superdex 200 size exclusion)) MKFQPLGERVLVERLEEENKTSSGIIIPDNAKEKPLMGVVKAVSHKISEGCKCVKEGDVIAFGKYKGAEIVLDGTEYMVLELEDILGIVGSGSCCATGNHDHKHAKEHEACCHDHKKH"
  censor_symbol: "="
  observed_result: 6.96
- binder: "HpGroES H118A mutant (natural protein, Helicobacter pylori, UniProt P0A0R3 1-118, looked up, GroES (HspA) of Helicobacter pylori with a point mutation in domain B; Same construct as m1 with the mutation; nickel-loaded during purification; source: E. coli M15 (pQE30), purified (Ni2+-chelating Sepharose, Superdex 200 size exclusion)) MKFQPLGERVLVERLEEENKTSSGIIIPDNAKEKPLMGVVKAVSHKISEGCKCVKEGDVIAFGKYKGAEIVLDGTEYMVLELEDILGIVGSGSCCHTGNHDHKHAKEHEACCHDHKKA"
  censor_symbol: "<"
  observed_result: 6.00
